Field: pIC50. Provide a value for each of the compounds that follow.
test system: HepG2; assay: Cytotoxicity against human HepG2 cells assessed as cell growth inhibition incubated for 72 hrs by MTT assay; format: functional, cell-based; details: HepG2, 72 h
Numbers only, as −log10 of the molar value.

Cl.NCCC[n+]1ccc(/C=C/c2c[nH]c3ccc(F)cc23)cc1.[Br-] | 3.99
O=C(O)CCCc1ccc(N(CCCl)CCCl)cc1 | 3.72
COc1cccc2c1C(=O)c1c(O)c3c(c(O)c1C2=O)C[C@@](O)(C(=O)CO)C[C@@H]3O[C@H]1C[C@H](N)[C@H](O)[C@H](C)O1.Cl [DOXORUBICIN HYDROCHLORIDE] | 6.17

Could you now look at the following compound, please?
Problem: I'd like to know its pIC50. The compound in question is O=C(CCCc1ccc(N(CCCl)CCCl)cc1)NCCC[n+]1ccc(/C=C/c2c[nH]c3ccc(F)cc23)cc1.[Br-]
Result: 4.22
